test system: HCT116 human colorectal carcinoma cells; test: CellTiter-Glo Luminescent Cell Viability Assay; assay type: cell-based; settings: HCT-116, 72 h, 3 days
measured-parameter: EC50

The cases that follow already have their EC50 on record.
compound: C[C@@H](CO)Cn1cc(S(=O)(=O)Nc2ccc(Cl)c3c(C#N)c[nH]c23)cn1
EC50: 250 to 1000 nM
--
compound: O=S(=O)(Nc1cccc2c(Cl)c[nH]c12)c1cnn(C2CNC2)c1
EC50: > 1000 nM

Tell us which EC50 value is on record for `N#Cc1c[nH]c2c(NS(=O)(=O)c3cnn(CC4CC4)c3)ccc(Cl)c12` 250 to 1000 nM

Answer with the recorded EC50 of `Cn1cc(S(=O)(=O)Nc2cccc3c(Cl)c(F)[nH]c23)cn1` only. > 1000 nM

* * *

Each entry below carries its recorded EC50.
tested on: HCT116 human colorectal carcinoma cells; test: CellTiter-Glo Luminescent Cell Viability Assay; assay type: cell-based; settings: HCT-116, 72 h, 3 days

Worked cases, answers included:
compound: Cc1ccc(NS(=O)(=O)c2cnn(CC3(F)CN(C(=O)OC(C)(C)C)C3)c2)c2[nH]cc(C#N)c12
EC50: 250 to 1000 nM
//
compound: CC(C)(O)Cn1cc(S(=O)(=O)Nc2ccc(F)c3c(C#N)c[nH]c23)cn1
EC50: > 1000 nM
//
compound: N#Cc1c[nH]c2c(NS(=O)(=O)c3cnn(C4CCNC4=O)c3)ccc(Cl)c12 (centres unmarked)
EC50: > 1000 nM
//
compound: N#Cc1c[nH]c2c(NS(=O)(=O)c3cnn([C@H](CO)CF)c3)ccc(Cl)c12
EC50: 250 to 1000 nM
//
compound: CC1(n2cc(S(=O)(=O)Nc3ccc(Cl)c4c(Cl)c[nH]c34)cn2)COC1
EC50: < 250 nM
//
compound: C[C@H](CO)n1cc(S(=O)(=O)Nc2ccc(Cl)c3c(C#N)c[nH]c23)cn1
EC50: 250 to 1000 nM
//
compound: N#Cc1c[nH]c2c(NS(=O)(=O)c3cnn(C4(CO)CCC4)c3)ccc(Cl)c12
EC50: < 250 nM

Kindly review the next compound as well.
Tell me measured EC50 for `Cc1ccc(NS(=O)(=O)c2cnn(C)c2CCO)c2[nH]cc(C#N)c12` please. > 1000 nM

* * *

tested on: HCT116 human colorectal carcinoma cells; assay: CellTiter-Glo Luminescent Cell Viability Assay; assay type: cell-based; details: HCT-116, 72 h, 3 days
Quick reference: EC50 of the listed items.

Observe how each entry below is paired with its result.
molecule: Cc1ccc(NS(=O)(=O)c2cn(C)nc2F)c2[nH]cc(C#N)c12
system-under-test: HCT116 human colorectal carcinoma cells
EC50: 250 to 1000 nM
--
molecule: CC(CO)n1cc(S(=O)(=O)Nc2ccc(Cl)c3c(Cl)c[nH]c23)cn1 (centres unmarked)
system-under-test: HCT116 human colorectal carcinoma cells
EC50: 250 to 1000 nM
--
molecule: CC(CO)(CO)n1cc(S(=O)(=O)Nc2ccc(Cl)c3c(Cl)c[nH]c23)cn1
system-under-test: HCT116 human colorectal carcinoma cells
EC50: < 250 nM
--
molecule: C[C@H]([C@@H](C)O)n1cc(S(=O)(=O)Nc2ccc(F)c3c(C#N)c[nH]c23)cn1
system-under-test: HCT116 human colorectal carcinoma cells
EC50: 250 to 1000 nM
--
molecule: N#Cc1c[nH]c2c(NS(=O)(=O)c3c[nH]nc3N)ccc(F)c12
system-under-test: HCT116 human colorectal carcinoma cells
EC50: > 1000 nM

Indicate the recorded EC50 value for this molecule: Cc1ccc(NS(=O)(=O)c2cnn(C(C)CCO)c2)c2[nH]cc(C#N)c12 (centres unmarked) < 250 nM

Answer with reported EC50 of `Cn1cc(S(=O)(=O)Nc2ccc(F)c3c(C#N)c[nH]c23)cn1` 250 to 1000 nM

Give the reported value of EC50 for this record: `Cc1ccc(NS(=O)(=O)c2cnn(CC3CC3)c2)c2[nH]cc(C#N)c12` < 250 nM

Identify measured EC50 corresponding to N#Cc1c[nH]c2c(NS(=O)(=O)c3cnn(C(F)CO)c3)ccc(F)c12 (centres unmarked) 250 to 1000 nM

Read the entry `Cc1ccc(NS(=O)(=O)c2cnn([C@H](C)CO)c2N)c2[nH]cc(C#N)c12` and write its reported EC50. < 250 nM

Where these numbers come from: patent US20250368627A1
